FYI, the data here is from patent US12161722B2.

tested-on: C481S BTK protein (Homo sapiens, UniProt Q06187, C481S)
Construct: expressed in transfected cells; host or cells: 293T BTK MUT (C481S) cells
Sequence (Q06187 whole entry C481S): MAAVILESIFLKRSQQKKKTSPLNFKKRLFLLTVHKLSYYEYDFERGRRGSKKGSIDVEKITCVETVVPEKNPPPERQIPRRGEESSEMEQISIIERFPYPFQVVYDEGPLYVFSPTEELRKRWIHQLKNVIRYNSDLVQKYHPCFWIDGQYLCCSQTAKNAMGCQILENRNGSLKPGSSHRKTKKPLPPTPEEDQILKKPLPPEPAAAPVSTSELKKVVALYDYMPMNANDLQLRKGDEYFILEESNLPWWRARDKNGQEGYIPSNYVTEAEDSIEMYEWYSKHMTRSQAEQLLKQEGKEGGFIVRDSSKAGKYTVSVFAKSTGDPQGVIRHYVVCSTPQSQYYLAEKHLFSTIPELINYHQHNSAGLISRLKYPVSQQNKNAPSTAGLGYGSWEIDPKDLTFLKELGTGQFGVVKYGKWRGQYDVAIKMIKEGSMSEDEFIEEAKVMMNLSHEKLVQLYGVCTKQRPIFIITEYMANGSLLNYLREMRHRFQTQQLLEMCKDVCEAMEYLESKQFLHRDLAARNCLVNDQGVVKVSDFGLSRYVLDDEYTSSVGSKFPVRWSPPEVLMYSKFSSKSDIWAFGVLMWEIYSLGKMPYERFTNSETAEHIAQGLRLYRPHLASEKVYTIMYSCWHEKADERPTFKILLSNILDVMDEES
assay: BTK protein degradation assay (Western blotting), C481S BTK
Type: cell-based
measurement-conditions: concentration range accounting for 50% degradation of C481S BTK protein, 293T BTK MUT (C481S) cells
measurement-kind: DC50

For Cc1cccc(C)c1Nc1nn(C)c2nc(Nc3ccc4c(c3)CN(C(=O)COCCOCCOCCOCCNc3cccc5c3C(=O)N(C3CCC(=O)NC3=O)C5=O)CC4)ncc12 (stereo not drawn) , what is its reported DC50? 1000 to 10000 nM

I am curious: what DC50 value has been reported for Cc1cccc(C)c1Nc1nn(C)c2nc(Nc3ccc4c(c3)CN(CC3CCN(C(=O)CN5CCN(c6ccc7c(c6)C(=O)N(C6CCC(=O)NC6=O)C7=O)CC5)CC3)CC4)ncc12 (stereo not drawn) ? 10 to 1000 nM

Name the recorded DC50 for Cc1cccc(C)c1Nc1nn(C)c2nc(Nc3ccc4c(c3)CN(CC3CCN(Cc5ccc6nnn(C7CCC(=O)NC7=O)c(=O)c6c5)CC3)CC4)ncc12 (stereo not drawn) . 10 to 1000 nM

GET /values?readout=DC50&item= Cc1cccc(C)c1Nc1nn(C)c2nc(Nc3ccc4c(c3)CN(C(=O)c3cn(CCOCCOCCOCCNC(=O)CNc5cccc6c5C(=O)N(C5CCC(=O)NC5=O)C6=O)nn3)CC4)ncc12 (stereo not drawn) > 10000 nM

Given the compound Cc1cccc(C)c1Nc1nn(C)c2nc(Nc3ccc4c(c3)CN(C(=O)C3CCN(C(=O)CNc5ccc6nnn(C7CCC(=O)NC7=O)c(=O)c6c5)CC3)CC4)ncc12 (stereo not drawn) , what is its reported DC50? 10 to 1000 nM

Need DC50 of Cc1cccc(C)c1Nc1nn(C)c2nc(Nc3ccc4c(c3)CN(C3CCN(c5ccc6c(c5)C(=O)N(C5CCC(=O)NC5=O)C6=O)CC3)CC4)ncc12 (stereo not drawn) , thanks. 0.1 to 10 nM
